Assignment: determine reported IC50 DC assay (example 7), TARC secretion for the given binders.
Molecular target: T1, human TSLPR (on cells) (human, UniProt Q9HC73 23-371)
T1 sequence: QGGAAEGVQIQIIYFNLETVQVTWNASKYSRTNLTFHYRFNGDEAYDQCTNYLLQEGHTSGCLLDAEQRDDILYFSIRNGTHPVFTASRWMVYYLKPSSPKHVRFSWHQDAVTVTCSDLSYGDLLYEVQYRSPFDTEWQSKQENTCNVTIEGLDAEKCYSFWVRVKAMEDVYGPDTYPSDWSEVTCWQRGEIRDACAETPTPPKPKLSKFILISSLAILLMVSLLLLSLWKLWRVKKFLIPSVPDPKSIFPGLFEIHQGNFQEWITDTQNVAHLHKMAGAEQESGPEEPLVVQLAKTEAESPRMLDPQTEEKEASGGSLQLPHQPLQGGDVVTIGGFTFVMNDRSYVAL
Experiment: cell-based or functional assay
Numbers only, in µg/mL.

A selection of reference data follows.
TSLPR-012_141, CDR grafted (antibody, V domains shown, Humanized (CDR grafted) variant of hamster TSLPR-012; human kappa and human IgG1 or IgG4(S228P,L235E) appear only as embodiments) VH: QVQLVESGGGLVKPGGSLRLSCAASGFSITTSGYYWTWIRQFPGKGLEWMGYIGYNSKTYYNPALKSRITISRDNAKNSLYLQMNSLRAEDTAVYYCARSLYGGYKDAFDSWGQGTLVTVSS VL: DIQMTQSPSSLSASVGDRVTITCRASQSIGTSLHWYQQKPGKAPKLLIKFASRLQSGVPSRFSGSGSGTDFTLTISSLQPEDFATYYCQQSPGFPPTFGQGTKLEIKR ... 0.046
TSLPR-012 (hamster) (antibody, V domains shown, Parent Armenian hamster monoclonal antibody; the hamster constant regions are not; also called TSLP-012; hamster antibody TSLPR-012) VH: QIQLQESGPGLVKPSQSLSLTCSVTGFSITTSGYYWTWIRQFPGKKLEWMGYIGYNSKTYYNPSLKSRISITRDTSKNQFLLHLNSVTTEDTATYYCARSLYGGYKDAFDSWGQGTLVTVSS VL: DVVLTQTPATLSAIPGERVTMTCKASQSIGTSLHWYQHRPNETPRLLIKFASRSITGIPSRFSGSGSGTDFTLGINNLEAEDFAIYYCQQSPGFPPTFGSGTKLEINR ... 0.129
TSLPR-012_189, CDR grafted (antibody, V domains shown, Humanized (CDR grafted) variant of hamster TSLPR-012; human kappa and human IgG1 or IgG4(S228P,L235E) appear only as embodiments) VH: QVQLVESGGGLVKPGGSLRLSCAASGFSITTSGYYWTWIRQFPGKGLEWMGYIGYNSKTYYNPALKSRITISRDNAKNSLYLQMNSLRAEDTAVYYCARSLYGGYKDAFDSWGQGTLVTVSS VL: EIVMTQSPATLSVSPGERATLSCRASQSIGTSLHWYQQKPGQAPRLLIKFASRSITGIPARFSGSGSGTEFTLTISSLQSEDFAVYYCQQSPGFPPTFGQGTKLEIKR ... 0.023
TSLPR-012_166, CDR grafted (antibody, V domains shown, Humanized (CDR grafted) variant of hamster TSLPR-012; human kappa and human IgG1 or IgG4(S228P,L235E) appear only as embodiments) VH: QVQLQESGPGLVKPSQTLSLTCTVSGFSITTSGYYWSWIRQHPGKGLEWIGYIGYNSKTYYSPSLKSRVTISRDTSKNQFSLKLSSVTAADTAVYYCARSLYGGYKDAFDSWGQGTLVTVSS VL: DIQMTQSPSSLSASVGDRVTITCRASQSIGTSLHWYQHRPGETPKLLIKFASRSISGVPSRFSGSGSGTDFTLTISSLQPEDFATYYCQQSPGFPPTFGQGTKLEIKR ... 0.086

Now for the binder whose IC50 DC assay (example 7), TARC secretion we want.
Which measured IC50 DC assay (example 7), TARC secretion value corresponds to TSLPR-012_75, CDR grafted (antibody, V domains shown, Humanized (CDR grafted) variant of hamster TSLPR-012; human kappa and human IgG1 or IgG4(S228P,L235E) appear only as embodiments) VH: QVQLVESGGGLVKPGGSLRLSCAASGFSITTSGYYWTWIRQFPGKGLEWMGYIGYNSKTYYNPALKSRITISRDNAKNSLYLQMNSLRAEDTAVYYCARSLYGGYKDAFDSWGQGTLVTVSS VL: EIVLTQSPDFQSVTPKEKVTITCRASQSIGTSLHWYQQKPDQSPKLLIKFASRSISGVPSRFSGSGSGTDFTLTINSLEAEDAATYYCQQSPGFPPTFGQGTKLEIKR ?
0.042

# credit: patent US20120020988A1
